# Tested on: rat liver mitochondria
# procedure summary: Respiration of isolated mitochondria fueled by succinate
# Assay type: biochemical
# condition label: 20 μM
property: RC (state 3/state 4) (rel. un.)

# molecule, unit, experimental result
records = [
    ("CC1(C)CCC2(C(=O)OCCCC[n+]3ccc(C=Cc4c[nH]c5ccccc45)cc3)CCC3(C)C(=CCC4C5(C)CCC(O)C(C)(C)C5CCC43C)C2C1 (stereo not shown)", "rel. un.", 1.25),
    ("CC1CCC2(C(=O)OCCCC[n+]3ccc(C=Cc4c[nH]c5ccccc45)cc3)CCC3(C)C(=CCC4C5(C)CCC(O)C(C)(C)C5CCC43C)C2C1C (stereo not shown)", "rel. un.", 1.37),
    ("C[C@H]1[C@H](C)CC[C@]2(C(=O)O)CC[C@]3(C)C(=CC[C@@H]4[C@@]5(C)CC[C@H](O)C(C)(C)[C@@H]5CC[C@]43C)[C@H]12 [UA, ursolic acid, reference compound]", "rel. un.", 3.32),
    ("CC1(C)CC[C@]2(C(=O)O)CC[C@]3(C)C(=CC[C@@H]4[C@@]5(C)CC[C@H](O)C(C)(C)[C@@H]5CC[C@]43C)[C@@H]2C1 [OA, oleanolic acid, reference compound]", "rel. un.", 2.80),
]
